Target: T1, ADAM17 (Homo sapiens, UniProt P78536)
T1 construct: purchased RnD Systems
T1 sequence (P78536 215-824): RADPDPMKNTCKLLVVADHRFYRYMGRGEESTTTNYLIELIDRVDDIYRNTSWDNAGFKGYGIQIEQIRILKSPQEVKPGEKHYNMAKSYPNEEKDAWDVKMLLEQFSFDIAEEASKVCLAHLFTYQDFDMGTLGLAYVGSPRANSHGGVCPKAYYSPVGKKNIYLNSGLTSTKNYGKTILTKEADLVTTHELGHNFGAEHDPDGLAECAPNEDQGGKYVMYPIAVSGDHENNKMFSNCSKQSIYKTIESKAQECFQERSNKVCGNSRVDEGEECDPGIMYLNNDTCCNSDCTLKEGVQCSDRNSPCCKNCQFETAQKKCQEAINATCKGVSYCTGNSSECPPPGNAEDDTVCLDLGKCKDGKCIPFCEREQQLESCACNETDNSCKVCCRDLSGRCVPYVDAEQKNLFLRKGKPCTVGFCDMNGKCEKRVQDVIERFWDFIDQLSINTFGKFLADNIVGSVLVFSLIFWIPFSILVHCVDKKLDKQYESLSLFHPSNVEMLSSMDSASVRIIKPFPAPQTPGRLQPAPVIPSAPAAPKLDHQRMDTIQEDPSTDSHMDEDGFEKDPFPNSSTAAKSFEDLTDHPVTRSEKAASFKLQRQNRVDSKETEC
Assay: SEPARATE assay: human peptidome library digest with ADAM17
Type: biochemical
Conditions: top 20 enriched peptides, human library (90-aa tiles); digest vs mock digest
Experimental: Streptavidin-coupled magnetic beads (Dynabeads M-280 Streptavidin, ThermoFisher Scientific) were washed (TBS, pH 7.4, 0.01% NP40) and resuspended in binding buffer (TBS, pH 7.4, 0.001% NP40) containing 2E9 plaque forming units per 10 μl of bead slurry. End-over-end mixing at room temperature was performed for one hour. Phage-coated beads were washed three times with wash buffer and transferred into two protein LoBind Eppendorf tubes blocked with TBS, pH 7.4 containing 1% BSA. […]
# note: exactly 40 fold is not below, so it is not fulfilled; use fulfilled for Adam17 Fold Change strictly under it

Worked examples, 5 molecules total:
| Molecule | Label value |
| --- | --- |
| SSVSTGHTTPLHVTDASSASTGQATPLPVTSLSSVSTGDTTPLPVTSPSSASTGHATPLLVTDTSSASTGHATPLPVTDASSVSTDHATS (protein, listed as Homo sapiens) SSVSTGHTTPLHVTDASSASTGQATPLPVTSLSSVSTGDTTPLPVTSPSSASTGHATPLLVTDTSSASTGHATPLPVTDASSVSTDHATS | not fulfilled |
| EIVPASLQRVRRPVAMVMPARRTPHVQAVQGPLGSPPKRGPLPTEEQRVYRRKELEEVSPETPVVPATTQRTLARPGPEPAPATDERDRV (protein, listed as Homo sapiens) EIVPASLQRVRRPVAMVMPARRTPHVQAVQGPLGSPPKRGPLPTEEQRVYRRKELEEVSPETPVVPATTQRTLARPGPEPAPATDERDRV | fulfilled |
| KVATLPLSSRAGAPPAAVPIINMILPTVPALPGPGPGPGRAPPGGLTQPRGTENREVGIGGDQGPHDKGVKRTAEVPVSEASGQAPPAKA (protein, listed as Homo sapiens) KVATLPLSSRAGAPPAAVPIINMILPTVPALPGPGPGPGRAPPGGLTQPRGTENREVGIGGDQGPHDKGVKRTAEVPVSEASGQAPPAKA | fulfilled |
| PVTSTSSASTGHATPLPVTGLSSATTDDTTRLPVTDVSSASTGQATPLPVTSLSSVSTGDTTPLPVTSPSSASTGHASPLLVTDASSAST (protein, listed as Homo sapiens) PVTSTSSASTGHATPLPVTGLSSATTDDTTRLPVTDVSSASTGQATPLPVTSLSSVSTGDTTPLPVTSPSSASTGHASPLLVTDASSAST | not fulfilled |
| AIRLANSTASVSRGSMQELDMLAGLRRSHAPQSRSSLNAKPHDSLDLNCDSRDFVAAIISIPTPPANTPDESQPSSPGGGGRAGSTLRNS (protein, listed as Homo sapiens) AIRLANSTASVSRGSMQELDMLAGLRRSHAPQSRSSLNAKPHDSLDLNCDSRDFVAAIISIPTPPANTPDESQPSSPGGGGRAGSTLRNS | not fulfilled |

Input line: Here's an entry: HSALPFRLQLRRGEARLGEERHFQESGNSSWEILRASKAEEGTYECTAVSRAGTGRAKAQIVVTDPPPQLVPAPNVTVSPGETAVLSCRV (protein, listed as Homo sapiens) HSALPFRLQLRRGEARLGEERHFQESGNSSWEILRASKAEEGTYECTAVSRAGTGRAKAQIVVTDPPPQLVPAPNVTVSPGETAVLSCRV . Is its Adam17 Fold Change below 40 fold?
Output line: not fulfilled

Input line: Regarding EPEPTPGLVLSKPALEEEEAPRALSLLSLPPKKRSILGLGQARPLEFLRTCYGGSFLVHESFLYKREKAVGDKVYWTCRDHALHGCRSRA (protein, listed as Homo sapiens) EPEPTPGLVLSKPALEEEEAPRALSLLSLPPKKRSILGLGQARPLEFLRTCYGGSFLVHESFLYKREKAVGDKVYWTCRDHALHGCRSRA , kindly confirm whether its Adam17 Fold Change is beneath 40 fold.
Output line: fulfilled

Input line: Threshold test, Adam17 Fold Change < 40 fold: QSVSPVQAPPPGGSAQLLPGKVLVPLAAPSMSVRGGGAGQPLPLVSPPFSVPVQNGAQPPSKIIQLTPVPVSTPSGLVPPLSPATLPGPT (protein, listed as Homo sapiens) QSVSPVQAPPPGGSAQLLPGKVLVPLAAPSMSVRGGGAGQPLPLVSPPFSVPVQNGAQPPSKIIQLTPVPVSTPSGLVPPLSPATLPGPTA
Output line: not fulfilled

Values were extracted from patent US12091776B2.
